target: BRD4 bromo domain 2 [BRD4(2)] (Homo sapiens); construct: N-terminally His6-tagged BRD4(2) (amino acids 357-445); assay: BRD4/acetylated peptide H4 binding assay (TR-FRET), BRD4 bromo domain 2; conditions: inhibition of BRD4(2)/Ac-H4 peptide interaction
quantityName: IC50 (nM)

Below: 5 compounds and their reported IC50.
compound | unitsText | resultValue
C[C@@H]1C(=O)N(C)c2ccc(Nc3cccc(S(=O)(=O)N4CCN(C)CC4)c3)nc2N1C1CCOCC1 | nM | 68
COCCN1c2nc(Nc3cccc(S(=O)(=O)N4CCOCC4)c3)ccc2N(C)C(=O)[C@H]1C (stereo in doubt) | nM | 115
C[C@@H]1C(=O)N(C)c2ccc(Nc3cccc(S(=O)(=O)N4CCCC4)c3)nc2N1C1CCOCC1 | nM | 40
COc1ccc(CN2c3cc(Nc4cccc(S(=O)(=O)N5CCOCC5)c4)ccc3N(C)C(=O)[C@H]2C)cc1 | nM | 48
C[C@@H]1C(=O)N(C)c2ccc(Nc3cccc(S(=O)(=O)N(C)C)c3)nc2N1C1CCN(C)CC1 | nM | 43

(I) C[C@@H]1C(=O)N(C)c2ccc(Nc3cccc(S(=O)(=O)NC4CCN(C)CC4)c3)nc2N1C1CCOCC1
(II) C[C@@H]1C(=O)N(C)c2ccc(Nc3cccc(C(=O)NC4CN(C)C4)c3)nc2N1C1CCCC1
Prompt line: Of I and II , which carries the smaller reported IC50 figure? Write the label of whichever entry you select.
Response line: I
(I: 52 nM, II: 91 nM)

* * *

target: BRD4 bromo domain 1 [BRD4(1)] (Homo sapiens, UniProt O60885); construct: N-terminally His6-tagged BRD4(1) (amino acids 67-152); assay: BRD4/acetylated peptide H4 binding assay (TR-FRET), BRD4 bromo domain 1; conditions: inhibition of BRD4(1)/Ac-H4 peptide interaction
quantityName: IC50 (nM)

compound | IC50, nM
C[C@@H]1C(=O)N(C)c2ccc(Nc3cccc(S(=O)(=O)N(C)C)c3)cc2N1C1CCOCC1 | 46
C[C@@H]1C(=O)N(C)c2ccc(Nc3cccc(C(=O)N4CCN(C)CC4)c3)nc2N1C1CCNCC1 | 206
COc1ccc(CN2c3cc(Nc4cccc(S(=O)(=O)N(C)C)c4)ccc3N(C)C(=O)[C@H]2C)cc1 | 159
C[C@@H]1C(=O)N(C)c2ccc(Nc3cccc(S(=O)(=O)N(C)C)c3)cc2N1C1CCNCC1 | 45
C[C@@H]1C(=O)N(C)c2ccc(Nc3cccc(S(=O)(=O)N[C@H]4CC[C@H](N5CCN(CC6CC6)CC5)CC4)c3)nc2N1Cc1ccccc1 | 19
COCCN1c2nc(Nc3cccc(C(=O)N[C@H]4CC[C@H](N5CCN(CC6CC6)CC5)CC4)c3)ccc2N(C)C(=O)[C@H]1C | 617
C[C@@H]1C(=O)N(C)c2ccc(Nc3cccc(C(=O)N[C@H]4CC[C@H](N5CCN(CC6CC6)CC5)CC4)c3)nc2N1C1CCNCC1 | 251
C[C@@H]1C(=O)N(C)c2ccc(Nc3cccc(C(=O)NC4CCC(NC5CCN(C)CC5)CC4)c3)nc2N1C1CCOCC1 (stereo partly drawn) | 196

(I) COc1ccc(C(=O)N2CCN(C)CC2)cc1Nc1ccc2c(n1)N(C1CCOCC1)[C@H](C)C(=O)N2C
(II) COc1ccc(CN2c3cc(Nc4cccc(S(=O)(=O)N5CCOCC5)c4)ccc3N(C)C(=O)[C@H]2C)cc1
Prompt line: Just curious, which one has the larger IC50 reading, I or II ? Write the label of whichever entry you select.
Response line: II
(II: 208 nM, I: 129 nM)

(I) C[C@H]1C(=O)N(C)c2ccc(Nc3cccc(C(=O)NC4CCN(C)CC4)c3)nc2N1c1ccc(F)cc1 (stereo in doubt)
(II) COc1ccc(S(=O)(=O)N2CCN(C)CC2)cc1Nc1ccc2c(n1)N(C1CCOCC1)[C@H](C)C(=O)N2C
(III) C[C@@H]1C(=O)N(C)c2ccc(Nc3cccc(S(=O)(=O)N(C)C)c3)nc2N1C1CCN(C)CC1
(IV) CC(C)N1c2nc(Nc3cccc(C(=O)N4CCN(C)CC4)c3)ccc2N(C)C(=O)[C@H]1C
(V) C[C@@H]1C(=O)N(C)c2ccc(Nc3cccc(C(=O)N[C@H]4CC[C@H](N5CCN(CC6CC6)CC5)CC4)c3)nc2N1Cc1ccccc1
Prompt line: Sort these compounds on IC50 so the largest reading comes first. A complete answer lists every label in the requested sequence.
Response line: I, IV, V, II, III

(a) C[C@@H]1C(=O)N(C)c2ccc(Nc3cccc(S(=O)(=O)N(C)C)c3)nc2N1C1CCNCC1
(b) C[C@@H]1C(=O)N(C)c2ccc(Nc3cccc(S(=O)(=O)N[C@H]4CC[C@H](N5CCN(CC6CC6)CC5)CC4)c3)nc2N1C1CCNCC1
(c) COc1c(Nc2ccc3c(n2)N(C2CCOCC2)[C@H](C)C(=O)N3C)cccc1C(=O)N[C@H]1CC[C@H](N2CCN(CC3CC3)CC2)CC1
(d) C[C@@H]1C(=O)N(C)c2ccc(Nc3cccc(C(=O)N[C@H]4CC[C@H](N5CCN(CC6CC6)CC5)CC4)c3)nc2N1C1CCCC1
(e) COCCN1c2nc(Nc3cccc(C(=O)NC4CCN(C)CC4)c3)ccc2N(C)C(=O)[C@H]1C (stereo in doubt)
Prompt line: Sort these compounds on IC50 so the largest reading comes first. A complete answer lists every label in the requested sequence.
Response line: e, c, d, b, a
(e: 742 nM, c: 439 nM, d: 99 nM, b: 47 nM, a: 18 nM)

(P) CC(C)N1c2nc(Nc3cccc(S(=O)(=O)NCCN(C)C)c3)ccc2N(C)C(=O)[C@H]1C
(Q) C[C@@H]1C(=O)N(C)c2ccc(Nc3cccc(S(=O)(=O)NC4CC4)c3)nc2N1C1CCOCC1
(R) C[C@@H]1C(=O)N(C)c2ccc(Nc3cccc(S(=O)(=O)N(C)C)c3)cc2N1C1CCN(C(=O)OC(C)(C)C)CC1
(S) C[C@@H]1C(=O)N(C)c2ccc(Nc3cccc(S(=O)(=O)N4CCN(CC(F)(F)F)CC4)c3)nc2N1C1CCNCC1
Prompt line: Sort these compounds on IC50 so the largest reading comes first. A complete answer lists every label in the requested sequence.
Response line: R, P, S, Q

(A) C[C@@H]1C(=O)N(C)c2ccc(Nc3cccc(S(N)(=O)=O)c3)nc2N1C1CCOCC1
(B) C[C@@H]1C(=O)N(C)c2ccc(Nc3cccc(C(=O)NC4CCN(C)CC4)c3)nc2N1C1CCOCC1
Prompt line: Of A and B , which carries the smaller reported IC50 figure? Write the label of whichever entry you select.
Response line: A

* * *

target: BRD4 bromo domain 2 [BRD4(2)] (Homo sapiens); construct: N-terminally His6-tagged BRD4(2) (amino acids 357-445); test: BRD4/acetylated peptide H4 binding assay (TR-FRET), BRD4 bromo domain 2; conditions: inhibition of BRD4(2)/Ac-H4 peptide interaction
pIC50: −log10 of the molar value.
quantityName: pIC50

compound | resultValue
C[C@@H]1C(=O)N(C)c2ccc(Nc3cccc(C(=O)N(C)C)c3)cc2N1Cc1ccccc1 [Example 107] | 6.93
C[C@@H]1C(=O)N(C)c2ccc(Nc3cccc(C(=O)N4CCN(C)CC4)c3)nc2N1Cc1ccccc1 [Example 75] | 7.10
C[C@@H]1C(=O)N(C)c2ccc(Nc3cccc(S(=O)(=O)N4CCN(C)CC4)c3)nc2N1C1CCN(C)CC1 [Example 50] | 6.92

(I) C[C@@H]1C(=O)N(C)c2ccc(Nc3cccc(C(=O)N[C@H]4CC[C@H](N5CCN(CC6CC6)CC5)CC4)c3)cc2N1Cc1c(F)cccc1F [Example 22]
(II) C[C@@H]1C(=O)N(C)c2ccc(Nc3cccc(S(=O)(=O)N4CCOCC4)c3)nc2N1C1CCN(C)CC1 [Example 47]
(III) C[C@@H]1C(=O)N(C)c2ccc(Nc3cccc(C(=O)N[C@H]4CC[C@H](N5CCN(CC6CC6)CC5)CC4)c3)nc2N1Cc1ccccc1 [Example 72]
Prompt line: Hey, can you sort those compounds up there by pIC50, smallest first? A complete answer lists every label in the requested sequence.
Response line: III, I, II

* * *

Molecular target: BRD4 bromo domain 1 [BRD4(1)] (Homo sapiens, UniProt O60885)
Construct: N-terminally His6-tagged BRD4(1) (amino acids 67-152)
Assay: BRD4/acetylated peptide H4 binding assay (TR-FRET), BRD4 bromo domain 1
Settings: inhibition of BRD4(1)/Ac-H4 peptide interaction
Source text: Protein-Protein Interaction Assay: BRD4/Acetylated Peptide H4 Binding Assay To assess the BRD4(1) binding strength of the substances described in this application, the ability thereof to inhibit the interaction between BRD4(1) and acetylated histone H4 in a dose-dependent manner was quantified. […]
quantityName: IC50 (nM)

molecule | system | unitsText | IC50
C[C@@H]1C(=O)N(C)c2ccc(Nc3cccc(C(=O)N4CCN(C)CC4)c3)nc2N1C1CCOCC1 [Example 15] | BRD4 bromo domain 1 [BRD4(1)] (Homo sapiens, UniProt O60885) | nM | 108
C[C@@H]1C(=O)N(C)c2ccc(Nc3ccc4c(c3)S(=O)(=O)NC4)nc2N1C1CCOCC1 [Example 56] | BRD4 bromo domain 1 [BRD4(1)] (Homo sapiens, UniProt O60885) | nM | 112

(I) COc1ccc(Nc2ccc3c(n2)N(C2CCOCC2)[C@H](C)C(=O)N3C)cc1C(=O)N[C@H]1CC[C@H](N2CCN(CC3CC3)CC2)CC1 [Example 82]
(II) C[C@@H]1C(=O)N(C)c2ccc(Nc3cccc(S(=O)(=O)NC4CCN(C)CC4)c3)nc2N1C1CCNCC1 [Example 124]
(III) CCNS(=O)(=O)c1cccc(Nc2ccc3c(n2)N(C2CCOCC2)[C@H](C)C(=O)N3C)c1 [Example 23]
Prompt line: Sort these molecules on IC50 so the largest reading comes first. A complete answer lists every label in the requested sequence.
Response line: I, II, III

(1) C[C@@H]1C(=O)N(C)c2ccc(Nc3cccc(S(=O)(=O)NC4CCN(C)CC4)c3)nc2N1Cc1ccccc1 [Example 33]
(2) C[C@@H]1C(=O)N(C)c2ccc(Nc3cccc(S(=O)(=O)NC4CCN(C)CC4)c3)nc2N1C1CCCCCC1 [Example 48]
Prompt line: Of 1 and 2 , which carries the smaller reported IC50 figure? Write the label of whichever entry you select.
Response line: 1
(1: 22 nM, 2: 75 nM)
